experimental-details: Plasma concentrations after oral dosing (solution in apple juice) of human volunteers, Example 1A
Format: in vivo
condition-set: human, plasma, po, 22.5 mg, subject 1 (112 kg); 22.5 mg oral; 0.5 h
Description: (+)-α-Dihydrotetrabenazine in defined amounts was administered by oral dosing (as a solution in apple juice) to six human volunteers. […] At 60 minutes after drug administration, PET scans were initiated and these were stopped at 120 minutes after drug administration. The experiment was carried out at dosages of 7.5 mg, 15 mg and 22.5 mg. […]
measurement-kind: concentration at 0.5 h
Please format your answer as a value with the unit trailing.

What value of concentration at 0.5 h has been recorded for this entry: COc1cc2c(cc1OC)[C@H]1C[C@@H](O)[C@H](CC(C)C)CN1CC2 [(+)-α-dihydrotetrabenazine]
9.61 ng/mL

* * *

experimental-details: Plasma concentrations up to 7 hours after oral dosing of human volunteers, Example 1B
Assay type: in vivo
condition-set: po, 7.5 mg, Example 1B subject 4 (95 kg), 7.5 mg oral, 2 h
measurement-kind: concentration at 2 h
Please format your answer as a value with the unit trailing.

What value of concentration at 2 h has been recorded for this entry: COc1cc2c(cc1OC)[C@H]1C[C@@H](O)[C@H](CC(C)C)CN1CC2 [(+)-α-dihydrotetrabenazine]
13.9 ng/mL

* * *

experimental-details: Plasma concentrations up to 7 hours after oral dosing of human volunteers, Example 1B
Assay type: in vivo
condition-set: po, 7.5 mg, Example 1B subject 5 (99 kg), 7.5 mg oral, 1 h
measurement-kind: concentration at 1 h (ng/mL)
Write it as a number; the unit ng/mL goes unstated.

What value of concentration at 1 h has been recorded for this entry: COc1cc2c(cc1OC)[C@H]1C[C@@H](O)[C@H](CC(C)C)CN1CC2 [(+)-α-dihydrotetrabenazine]
5.64

* * *

experimental-details: Plasma concentrations after oral dosing (solution in apple juice) of human volunteers, Example 1A
Format: in vivo
condition-set: human, plasma, po, 15 mg, subject 6 (68 kg); 15 mg oral; 3 h
Procedure: (+)-α-Dihydrotetrabenazine in defined amounts was administered by oral dosing (as a solution in apple juice) to six human volunteers. […] At 60 minutes after drug administration, PET scans were initiated and these were stopped at 120 minutes after drug administration. The experiment was carried out at dosages of 7.5 mg, 15 mg and 22.5 mg. […]
measurement-kind: concentration at 3 h (ng/mL)
Write it as a number; the unit ng/mL goes unstated.

What value of concentration at 3 h has been recorded for this entry: COc1cc2c(cc1OC)[C@H]1C[C@@H](O)[C@H](CC(C)C)CN1CC2 [(+)-α-dihydrotetrabenazine]
14.9

* * *

experimental-details: Plasma concentrations after oral dosing (solution in apple juice) of human volunteers, Example 1A
Assay type: in vivo
condition-set: human, plasma, po, 7.5 mg, subject 1 (112 kg); 7.5 mg oral; 3 h
measurement-kind: concentration at 3 h (ng/mL)
Write it as a number; the unit ng/mL goes unstated.

What value of concentration at 3 h has been recorded for this entry: COc1cc2c(cc1OC)[C@H]1C[C@@H](O)[C@H](CC(C)C)CN1CC2 [(+)-α-dihydrotetrabenazine]
3.01

* * *

experimental-details: Plasma concentrations up to 7 hours after oral dosing of human volunteers, Example 1B
Type: in vivo
condition-set: po, 7.5 mg, Example 1B subject 4 (95 kg), 7.5 mg oral, 6 h, read-out: plasma concentrations
measurement-kind: concentration at 6 h (ng/mL)
Write it as a number; the unit ng/mL goes unstated.

What value of concentration at 6 h has been recorded for this entry: COc1cc2c(cc1OC)[C@H]1C[C@@H](O)[C@H](CC(C)C)CN1CC2 [(+)-α-dihydrotetrabenazine]
4.92

* * *

experimental-details: Plasma concentrations up to 7 hours after oral dosing of human volunteers, Example 1B
Assay type: in vivo
condition-set: po, 7.5 mg, Example 1B subject 4 (95 kg), 7.5 mg oral, 7 h
measurement-kind: concentration at 7 h (ng/mL)
Write it as a number; the unit ng/mL goes unstated.

What value of concentration at 7 h has been recorded for this entry: COc1cc2c(cc1OC)[C@H]1C[C@@H](O)[C@H](CC(C)C)CN1CC2 [(+)-α-dihydrotetrabenazine]
4.91

* * *

experimental-details: Plasma concentrations up to 7 hours after oral dosing of human volunteers, Example 1B
Type: in vivo
condition-set: po, 7.5 mg, Example 1B subject 2 (76 kg), 7.5 mg oral, 6 h, read-out: plasma concentrations
measurement-kind: concentration at 6 h
Please format your answer as a value with the unit trailing.

What value of concentration at 6 h has been recorded for this entry: COc1cc2c(cc1OC)[C@H]1C[C@@H](O)[C@H](CC(C)C)CN1CC2 [(+)-α-dihydrotetrabenazine]
13.4 ng/mL

* * *

experimental-details: Plasma concentrations after oral dosing (solution in apple juice) of human volunteers, Example 1A
Assay type: in vivo
condition-set: human, plasma, po, 22.5 mg, subject 1 (112 kg); 22.5 mg oral; 1.5 h
measurement-kind: concentration at 1.5 h (ng/mL)
Write it as a number; the unit ng/mL goes unstated.

What value of concentration at 1.5 h has been recorded for this entry: COc1cc2c(cc1OC)[C@H]1C[C@@H](O)[C@H](CC(C)C)CN1CC2 [(+)-α-dihydrotetrabenazine]
16.8

* * *

experimental-details: Plasma concentrations after oral dosing (solution in apple juice) of human volunteers, Example 1A
Format: in vivo
condition-set: human, plasma, po, 15 mg, subject 1 (112 kg); 15 mg oral; 3 h
measurement-kind: concentration at 3 h
Please format your answer as a value with the unit trailing.

What value of concentration at 3 h has been recorded for this entry: COc1cc2c(cc1OC)[C@H]1C[C@@H](O)[C@H](CC(C)C)CN1CC2 [(+)-α-dihydrotetrabenazine]
10.6 ng/mL

* * *

experimental-details: Plasma concentrations after oral dosing (solution in apple juice) of human volunteers, Example 1A
Format: in vivo
condition-set: human, plasma, po, 22.5 mg, subject 3 (129 kg); 22.5 mg oral; 3 h
measurement-kind: concentration at 3 h (ng/mL)
Write it as a number; the unit ng/mL goes unstated.

What value of concentration at 3 h has been recorded for this entry: COc1cc2c(cc1OC)[C@H]1C[C@@H](O)[C@H](CC(C)C)CN1CC2 [(+)-α-dihydrotetrabenazine]
17.3

* * *

experimental-details: Plasma concentrations after oral dosing (solution in apple juice) of human volunteers, Example 1A
Assay type: in vivo
condition-set: human, plasma, po, 22.5 mg, subject 5 (91 kg); 22.5 mg oral; 1.5 h
measurement-kind: concentration at 1.5 h (ng/mL)
Write it as a number; the unit ng/mL goes unstated.

What value of concentration at 1.5 h has been recorded for this entry: COc1cc2c(cc1OC)[C@H]1C[C@@H](O)[C@H](CC(C)C)CN1CC2 [(+)-α-dihydrotetrabenazine]
46.2

* * *

experimental-details: Plasma concentrations up to 7 hours after oral dosing of human volunteers, Example 1B
Assay type: in vivo
condition-set: po, 7.5 mg, Example 1B subject 2 (76 kg), 7.5 mg oral, 7 h
measurement-kind: concentration at 7 h (ng/mL)
Write it as a number; the unit ng/mL goes unstated.

What value of concentration at 7 h has been recorded for this entry: COc1cc2c(cc1OC)[C@H]1C[C@@H](O)[C@H](CC(C)C)CN1CC2 [(+)-α-dihydrotetrabenazine]
11.6

* * *

experimental-details: Plasma concentrations up to 7 hours after oral dosing of human volunteers, Example 1B
Assay type: in vivo
condition-set: po, 7.5 mg, Example 1B subject 1 (112 kg), 7.5 mg oral, 4 h
measurement-kind: concentration at 4 h (ng/mL)
Write it as a number; the unit ng/mL goes unstated.

What value of concentration at 4 h has been recorded for this entry: COc1cc2c(cc1OC)[C@H]1C[C@@H](O)[C@H](CC(C)C)CN1CC2 [(+)-α-dihydrotetrabenazine]
6.01

* * *

experimental-details: Plasma concentrations up to 7 hours after oral dosing of human volunteers, Example 1B
Format: in vivo
condition-set: po, 7.5 mg, Example 1B subject 4 (95 kg), 7.5 mg oral, 3 h
measurement-kind: concentration at 3 h (ng/mL)
Write it as a number; the unit ng/mL goes unstated.

What value of concentration at 3 h has been recorded for this entry: COc1cc2c(cc1OC)[C@H]1C[C@@H](O)[C@H](CC(C)C)CN1CC2 [(+)-α-dihydrotetrabenazine]
10.6

* * *

experimental-details: Plasma concentrations up to 7 hours after oral dosing of human volunteers, Example 1B
Assay type: in vivo
condition-set: po, 7.5 mg, Example 1B subject 5 (99 kg), 7.5 mg oral, 2 h
measurement-kind: concentration at 2 h (ng/mL)
Write it as a number; the unit ng/mL goes unstated.

What value of concentration at 2 h has been recorded for this entry: COc1cc2c(cc1OC)[C@H]1C[C@@H](O)[C@H](CC(C)C)CN1CC2 [(+)-α-dihydrotetrabenazine]
7.59

* * *

experimental-details: Plasma concentrations up to 7 hours after oral dosing of human volunteers, Example 1B
Format: in vivo
condition-set: po, 7.5 mg, Example 1B subject 2 (76 kg), 7.5 mg oral, 4 h
measurement-kind: concentration at 4 h (ng/mL)
Write it as a number; the unit ng/mL goes unstated.

What value of concentration at 4 h has been recorded for this entry: COc1cc2c(cc1OC)[C@H]1C[C@@H](O)[C@H](CC(C)C)CN1CC2 [(+)-α-dihydrotetrabenazine]
17.5

Provenance of the data: patent EP3860599B1
